# EXPERIMENTAL_TARGET: recombinant human 15-PGDH (Homo sapiens)
# Construct: purchased R&D Systems
# Sequence (P15428 whole entry): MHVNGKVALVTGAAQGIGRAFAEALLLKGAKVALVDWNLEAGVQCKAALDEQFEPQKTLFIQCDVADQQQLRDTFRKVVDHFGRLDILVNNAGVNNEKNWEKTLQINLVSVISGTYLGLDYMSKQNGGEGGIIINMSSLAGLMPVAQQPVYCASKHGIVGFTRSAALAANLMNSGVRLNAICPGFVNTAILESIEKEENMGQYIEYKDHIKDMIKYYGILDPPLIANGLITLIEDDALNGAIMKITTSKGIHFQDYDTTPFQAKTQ
# TEST_PROTOCOL: 15-PGDH enzyme inhibition test
# Type: biochemical
# CONDITION_LABEL: 4 nM recombinant human 15-PGDH, 30 μM PGE2, 1 mM NAD+, 60 minutes after starting the reaction; read-out: IC50 Value
pIC50: −log10 of the molar value.
READOUT_NAME: pIC50

INSERT INTO results (compound, readout_name, test_result) VALUES
  ('Cn1nc2cc(N3CCCc4cc(C(=O)N5CCC[C@H](CF)C5)cnc43)ccn2c1=O', 'pIC50', '> 8.00'),
  ('O=C(c1cnc2c(c1)OCCN2c1cccc(F)c1)N1CCCCC1', 'pIC50', '> 8.00'),
  ('O=C(c1cnc2c(c1)CCCN2c1ccc(F)cc1)N1CCCCC1', 'pIC50', '7.00 to 8.00'),
  ('CS(=O)(=O)c1ccc(N2CCOc3cc(C(=O)N4CCCCC4)cnc32)cc1Cl', 'pIC50', '7.00 to 8.00'),
  ('CN(C)C1CCCN(C(=O)c2cnc3c(c2)OCCN3c2ccn3c(=O)n(C)nc3c2)C1 (centres unmarked)', 'pIC50', '< 7.00'),
  ('O=C(c1ccc2c(c1)OCCN2c1ccc(-c2nnn[nH]2)cc1)N1CCC(F)(F)CC1', 'pIC50', '> 8.00'),
  ('COc1cc(N2CCOc3cc(C(=O)N4CCCCC4)cnc32)ccc1S(C)(=O)=O', 'pIC50', '7.00 to 8.00'),
  ('Cc1c(C(=O)N2CCCCC2)ccc2c1OCCN2c1ccc(C(=O)O)cc1', 'pIC50', '> 8.00'),
  ('COc1noc2cc(N3CCOc4cc(C(=O)N5CCCCC5)cnc43)ccc12', 'pIC50', '> 8.00'),
  ('COc1ccc(CN2Cc3cc(N4CCOc5cc(C(=O)N6CCC(F)(F)CC6)ccc54)ccc3C2=O)c(OC)c1', 'pIC50', '> 8.00'),
  ('O=C1NCc2cc(N3CCOc4cc(C(=O)N5CCC(F)(F)CC5)cnc43)ccc21', 'pIC50', '> 8.00'),
  ('CCC1CCCN(C(=O)c2cnc3c(c2)OCCN3c2ccn3c(=O)n(C)nc3c2)C1 (centres unmarked)', 'pIC50', '> 8.00'),
  ('O=C(O)CCc1ccc(N2CCOc3cc(C(=O)N4CCCCC4)ccc32)cc1', 'pIC50', '> 8.00'),
  ('CCN1Cc2cc(N3CCCc4cc(C(=O)N5CCC[C@H](F)C5)cnc43)ccc2C1=O', 'pIC50', '> 8.00'),
  ('C[C@H]1CCCCN1C(=O)c1cnc2c(c1)CCCN2c1ccn2c(=O)n(C)nc2c1', 'pIC50', '> 8.00'),
  ('CNC(=O)c1cn(C)c2cc(N3CCOc4cc(C(=O)N5CCCCC5)cnc43)ccc12', 'pIC50', '< 7.00'),
  ('O=C(c1cnc2c(c1)OCCN2c1ccc2cccnc2c1)N1CCCCC1', 'pIC50', '> 8.00');
